assay-protocol: label from the status in PepcDB records
observable: protein production

Known protein production results, listed for orientation:
MSSAQFDHVTVIKKSNVYFGGLCISHTVQFEDGTKKTLGVILPTEQPLTFETHVPERMEIISGECRVKIADSTESELFRAGQSFYVPGNSLFKIETDEVLDYVCHLEG    not failed
KMFFKVIDTLSDNYEKEMLLLEAEAKEQYYQELEKSSREVRKIKHDLKNMLLAICGKAKKQNEISEEIYKIIKELDESDKKIYTSNVVINTIINHKISQAKKLEIKTDVNIKVSKAIHIDYKDAGILLGNILDNAIEACEKIKKKERWIKIDMLHNKNTLFIEVCNSKGKELTNISKSSKSDAHNHGIGISSIKAITKKYDGYVEFVDKGEEFEVVVNLYGMSF    failed
MPDPKPEVLDFLLSRRSRPAKTLALPVPDRAALAPILTGALRTPDHGKLEPWRLIVLEAGAMPRLAALADARAEALALDPDKSAKGRAQFAQSHLAVVVVARPEPSDKVPEIEQILSAGAVCLSLLNAAQAAGWGANWLTGWPAYDRGFLREGLGLAETEFVAGIVHIGSETVAPPERPRPDVASLTTWVSE    failed
SFQTVPSTAETSAVLLQDSGWDALAQRLALIETAEHSIDIQYYIWNSDASGHYLASRLLAAADRGVKVRVMLDDINLNEREDLLVALNAHPHVEIRVFNPIPTRRGVTKWVNFLGDFSRLNRRMHNKSFTVDGVFSVVGGRNIGDEYFDLSNEINFRDRDVLVRGSVVYDIQTSFIEYWDSRWSYPVDLLAKEASQEPLLQKQPVLDEIDAPVYKNYPA    failed
EPEQVIRKYTEELKVAPEEDCIICMEKLAVASGYSDMTDSKALGPMVVGRLTKCSHAFHLLCLLAMYCNGNKDGSLQCPSCKTIYGEKTGTQPWGKMEVFR    not failed
MTNIIKIRASVFIPMSWTEAKMDMETGQVIQFEGDSREFTPHAVNTMRSRVEQEVVVDFYKQEVFSYANTGITTEKVISPDGSVNKRTGKASTENIVCTDIVWNSGGVQFKMSASASNPLNVYAPPVDYVLNVCVKKDGSIDVQGEHDGFPCFEFYKQVDFGPFEKIYTHDFRETGDTAAALGGNMDYSFTKRL    not failed
MSQSPSPPDSPSASPDSPSASPMHAFLLCAGFGTRMRPVTAETPKSLVTVAGRPLLDHLLDELTAWSALTEIHVAVNHEDAPAFREWAAGHRADLETQGIGLHLHDDGVEAPDDQLGCVGDLRFLLDAVGLPADGALVSGGDSLYRFPLAPLLNAYDGTTNRVLALHEPDPERRAQSSVLQLDGPTVTAVHDDPTGTASTRICPSWLLLSAEGLGAIVPYLDDGGPPDTLGAFLDRLARTHSVQAHRLPQTGHLRLHCNTPDDLEHARKLLRKGPRHVLGPAPVRASLPEPAS    failed
TMNNEMSDPQIEEFYTIVKELEKFDTFTNFLDVHQPELAIVFGRTKRRVDELTSALISKGYKAEGLHGDITQAKRLEVLKKFKNDQINILVATDVAARGLDISGVSHVYNFDIPQDTESYTHRIGRTGRAGKEGIAVTFVNPIEMDYIRQIEDANGRKMSALRPPHRKEVLQAREDDIKEKVENWMSKESESRLKRISTELLNEYNDVDLVAALLQELVEANDEVEVQLTFEKPLSRKGRNGKPSGSR    failed
AADQVLELVRPFLEELRNISQETAVLGKRQDGQVIYLDVALSHQPIRYHVQVGESRAAHTNSIGKAIFPMLDEKEQKALLAKANWRALTSRTIATREAFLRDMAQTKARGWSSNVGESVEDLAAVALPFQLASEWYAVSIVGPYERMERNWDAHVETLLQTGARLRQAIAVHEGQ    failed
MYPYIKLIATLFRAKNSPQMNLDEKSVLNCRAGLTDIDVFVELNNARHLTYMEFGRWDFAQRTGLLSLMRKNKWAFAVGGASVRYRRRIAFWKKFTVTTQVICHDGRWFYFLQETHIKDKVCSSALIKAAFTSKQGLVPATEVLAAYGKTTPNFDVPDWVNAWIDAESQRPWPLEHHHHHH    not failed

Entry under test: "SVVAKVKIPEGTILTMDMLTVKVGEPKGYPPEDIFNLVGKKVLVTVEEDDTIMEELVDNHGKKIKS" . Its protein production was not failed

Sample "MFVGFLSGLIVMGALLSILLVLLGVMALRVFVRYILPILLILLIIRLIISGIVLLFNPHFWLFIAVVALVLWILGKIRN" ; protein production observed: failed

Memo: "MRIDTQEQLVTLLNALFEKVGINLEQVSKLDNYGVMFSVPGTMKPLIATLKTVTTPTNWNNETNLGHYKSADENWLLCLKPAPHSVFCIATVCSLHEKHLEQYIETSEKKQDRRIAAEHGDPEAQYYTAQDCEDKTEALFWYRKAGEQNHYWALYQIALMYEAGEGGLEKDFAQAILWRGKAAEQGSDAAARDLAEMYEEGTADIPQDLTLAIFWYERWLELSPVMRRMIKPKIKSLKAALSQRMNE" , reported protein production: failed

What the record says about "MSLIENLWRGICIISASEDAFSAGETIKEKLKSFEIPVVHYRYKDAEIETIWKCYDAIVFVMALEGATRIVCKYAKSKTEDPAIVCIDDKINYVIPLLGGHWGANDIARELSVILNSTPIITTAAEIKGKLSIERIANILIAKIINPENIVKINAALLRDESICIDGIDVNVNFPENIKVNSEECSYIISLRGDKEYKDKIVVWLKPLKISIGIGSKKDVKMEEIRDGIYKVLERLNLKRERIGIIASIREEVKKIADEFNVRFRLVNEEEINNFMNPCLTPPSKTLIEVGLKGVAEISALIAGGRNSKLILRKIAISRNSTIAVATYEGHHHHHH" : protein production is not failed

So for "MSDAETLSVYAAKADDYANLTDEAAARDPSLVAFIAAMPKRGRVLDLGCGPGGSAAAMARAGLVVDAFDPVPEMVALAGRHAGVSARKAGFEDVTQVDHYDGIWANFSLLHAPRDDMPKHLARIATALKPGGRFHIGVKTGTGSKRDTLGRRYTYYSESELVDLLAAAGLTVFDRREGCDTGLDGVDAHWIVLAAHA" , the logged protein production turned out to be failed
